# test_protocol: chemical genetic growth profiling, strain panel (AID 1159580);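 further: tested at 20 µM; growth read once vehicle control cultures reached saturation at 30 °C; 1 = growth at the plate median or of vehicle wells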
# measurement_parameters: S. cerevisiae deletion strains, growth OD, locus YEL061C, strain CIN8, stronger effect = lower value
The campaign covered roughly 5,500 compounds. About 2,000 (36%) were called active. Another 18% or so got no clear call; they are omitted. This is one part of the list.
Please respond with yes (1) when measured normalized growth is strictly beneath 1, and with no (0) in all other cases.

In: Report whether reported normalized growth is lower than 1 (strictly) for COc1ccc(C(=O)CC(=O)c2ccc(C(C)(C)C)cc2)cc1
Out: yes (1)

In: Report whether reported normalized growth is lower than 1 (strictly) for COc1ccc(OCC(N)=O)cc1
Out: no (0)

---

Would you mind telling me the reported normalized growth of each entry?
# test_protocol: chemical genetic growth profiling, strain panel (AID 1159580);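 further: tested at 20 µM; growth read once vehicle control cultures reached saturation at 30 °C; 1 = growth at the plate median or of vehicle wells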
# measurement_parameters: S. cerevisiae deletion strains, growth OD, locus YBR023C, strain chs3, stronger effect = lower value
Out of some 5,500 compounds screened, about 2,000 (36%) were called active. Inconclusive results (about 18%) are left out. This is one part of the list.
Answer with the value's number alone.

In: Recorded normalized growth for C=C1C2CC[C@@]3(C)[C@H](c4ccoc4)OC(=O)C[C@]13O[C@H]1CC(O)C(C)(C)C(CC(=O)OC)[C@@]21C (some centres undefined) , please?
Out: 0.981

In: Recorded normalized growth for C=C1C2CCC3(C)C(c4ccoc4)OC(=O)CC13OC1CC(OC(C)=O)C(C)(C)C(CC(=O)OC)C12C (centres undefined) , please?
Out: 1

In: Recorded normalized growth for C=C1C(C2(C)C=CC(=O)C(C)(C)C2CC(=O)OC)CC[C@@]2(C)[C@H](c3ccoc3)OC(=O)C3OC132 (some centres undefined) , please?
Out: 1

In: Recorded normalized growth for C=C1C2=CC(=O)O[C@@H](c3ccoc3)[C@]2(C)CCC1[C@@]1(C)C=CC(=O)C(C)(C)[C@@H]1CC(=O)OC (some centres undefined) , please?
Out: 1.01

---

# test_protocol: chemical genetic growth profiling, strain panel (AID 1159580);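 further: tested at 20 µM; growth read once vehicle control cultures reached saturation at 30 °C; 1 = growth at the plate median or of vehicle wells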
# measurement_parameters: S. cerevisiae deletion strains, growth OD, locus YIL066C, strain RNR3
The whole screen tested about 5,500 compounds, of which about 2,000 (36%) were called active. Another 18% or so got no clear call; they are omitted. No stated cut-off is given here; in the data, active means normalized growth mostly below about 0.91 (no sharp cut-off); inconclusive means no clear call, values can overlap the other calls; inactive means mostly above about 0.92. This is one part of the list.
The reply should name one outcome from label 1 (active), label 0 (inactive)

In: Just curious, what result did COc1cc([C@@H]2c3cc4c(cc3[C@H](OC(C)=O)[C@H]3COC(=O)[C@@H]23)OCO4)cc(OC)c1OC get here?
Out: label 0

In: Just curious, what result did N[C@H](Cc1ccccc1)C(=O)O get here?
Out: label 0

In: Just curious, what result did C=C1C2CC[C@@]3(C)[C@H](c4ccoc4)OC(=O)C[C@]13O[C@H]1CC(O)C(C)(C)C(CC(=O)OC)[C@@]21C (stereo not given in full) get here?
Out: label 0

In: Just curious, what result did COc1cc2c(cc1/C=C/C(=O)c1cc(OC)c(OC)cc1OC)OCO2 get here?
Out: label 0

In: Just curious, what result did C=C1C2CCC3(C)C(c4ccoc4)OC(=O)CC13OC1CC(OC(C)=O)C(C)(C)C(CC(=O)OC)C12C (stereo not given) get here?
Out: label 0

In: Just curious, what result did OC1=Cc2c(O)cc(O)cc2OC1(O)c1ccc(O)c(O)c1 (stereo not given) get here?
Out: label 0

In: Just curious, what result did O=C(Nc1ccccc1)Nc1ccccc1 get here?
Out: label 0

In: Just curious, what result did CC12CC3CC(C)(C1)CC(N)(C3)C2 get here?
Out: label 0

In: Just curious, what result did CN(C)C(=O)Nc1ccc(Cl)c(Cl)c1 get here?
Out: label 0

In: Just curious, what result did COC(=O)c1c(C)cc(OC(=O)c2c(C)cc(O)c(C=O)c2O)c(C)c1O get here?
Out: label 0

In: Just curious, what result did CC(CN1c2ccccc2Sc2ccccc21)N(C)C (stereo not given) get here?
Out: label 0

In: Just curious, what result did COc1cc([C@H]2Oc3cc([C@H]4Oc5cc(O)cc(O)c5C(=O)[C@@H]4O)ccc3O[C@@H]2CO)ccc1O get here?
Out: label 0

In: Just curious, what result did COc1cc(OC)c2c3c1C(=O)c1c(OC)cc(C)c4c(OC)cc(c-3c14)C(C)(C)C2=O get here?
Out: label 0

In: Just curious, what result did O=c1cc(-c2ccccc2)oc2cc(O)c(O)c(O)c12 get here?
Out: label 1

In: Just curious, what result did C[C@@H]1O[C@@H](O[C@H]2C[C@@H](O)[C@]3(CO)C4C(CC[C@]3(O)C2)[C@@]2(O)CC[C@H](C3=CC(=O)OC3)[C@@]2(C)C[C@H]4O)[C@H](O)[C@H](O)[C@H]1O (stereo not given in full) get here?
Out: label 0

In: Just curious, what result did O=C(Nc1ccccc1)c1ccccc1O get here?
Out: label 0

In: Just curious, what result did CC(=O)Nc1nnc(S(N)(=O)=O)s1 get here?
Out: label 1

In: Just curious, what result did C=C1[C@H]2CC[C@@]3(C)[C@H](c4ccoc4)OC(=O)C[C@]13O[C@H]1C[C@H](O)C(C)(C)[C@H](CC(=O)OC)[C@]12C get here?
Out: label 0

In: Just curious, what result did CCN(CC)C(C)CN1c2ccccc2Sc2ccccc21 (stereo not given) get here?
Out: label 0

In: Just curious, what result did COc1cc2c(cc1-c1cc3cc4ccoc4cc3oc1=O)OCO2 get here?
Out: label 0

Entry source: PubChem BioAssay AID1159580
